// provenance: patent US20230406951A1

Target: T1, human TNFR2 (human, UniProt P20333 23-461)
T1 construct: Human TNFR2 over-expressed on CHO cells, full length on transduced NF-KB-GFP Jurkat cells, or native on human primary T cells; also called Hu TNFR2; TNFRSF1B
T1 sequence: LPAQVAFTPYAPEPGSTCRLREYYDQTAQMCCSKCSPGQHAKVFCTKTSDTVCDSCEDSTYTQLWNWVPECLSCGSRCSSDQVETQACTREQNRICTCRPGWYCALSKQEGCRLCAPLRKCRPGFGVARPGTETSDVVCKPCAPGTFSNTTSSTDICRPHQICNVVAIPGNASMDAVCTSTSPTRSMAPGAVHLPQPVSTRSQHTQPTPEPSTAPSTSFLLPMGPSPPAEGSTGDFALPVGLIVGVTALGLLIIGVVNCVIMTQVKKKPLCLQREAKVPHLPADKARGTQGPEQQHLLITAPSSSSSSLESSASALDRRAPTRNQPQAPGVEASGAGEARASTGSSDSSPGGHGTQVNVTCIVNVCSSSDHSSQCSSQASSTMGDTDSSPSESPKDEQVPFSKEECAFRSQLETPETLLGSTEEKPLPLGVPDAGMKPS
Assay: binding to human TNFR2 CHO cells
measured_parameter: pEC50
Scale explanation: pEC50 corresponds to minus log10 of a concentration expressed in moles per litre.

The cases that follow already have their pEC50 on record.
>>> assay_value("clone 1766 (antibody, V domains shown) VH: QVQLVQSGAEVKKPGASVKVSCKVSGFSFPSSGVDWVRQAPGQGLEWLGVTWGVGSTHYNQKFQGRVTITKDTSKSTVYMELSSLRSEDTAVYYCASGEWDEGFVYWGQGTLVTVSS VL: DIQLTQSPSFLSASVGDRVTITCKASQNVGTAVAWYQQKPGKAPKLLIYSASNRYTGVPSRFSGSGSGTEFTLTISSLQPEDFATYYCQQYSSYPLTFGGGTKVEIK")
8.92
>>> assay_value("clone 1773 (antibody, name in Kabat numbering, V domains shown) VH: QVQLVQSGAEVKKPGASVKVSCKVSGFSFPSSGVDWVRQAPGQGLEWLGVTWGVGSTHYNQKFQGRVTITKDNSKSTVYMELSSLRSEDTAVYYCASGEWDEGFVYWGQGTLVTVSS VL: DIQLTQSPSFLSASVGDRVTITCKASQNVGTAVAWYQQKPGKAPKLLIYAASTLQSGVPSRFSGSGSGTEFTLTISSLQPEDFATYYCQQYSSYPLTFGGGTKVEIK")
8.95
>>> assay_value("GBT-TNFR2-1765 (antibody, human IgG2, kappa, V domains shown) VH: QVQLVQSGAEVKKPGASVKVSCKVSGFSFPSSGVDWVRQAPGQGLEWLGVTWGVGSTHYNQKFQGRVTITKDTSKSTVYMELSSLRSEDTAVYYCASGEWDEGFVYWGQGTLVTVSS VL: DIQLTQSPSFLSASVGDRVTITCKASQNVGTAVAWYQQKPGKAPKLLIYAASTLQSGVPSRFSGSGSGTEFTLTISSLQPEDFATYYCQQYSSYPLTFGGGTKVEIKR")
8.92

Please turn your attention to the following entry.
// pEC50 lookup, key: clone 1774 (antibody, V domains shown) VH: QVQLVQSGAEVKKPGASVKVSCKVSGFSFPSSGVDWVRQAPGQGLEWLGVTWGVGSTHYNQKFQGRVTITKDNSKSTVYMELSSLRSEDTAVYYCASGEWDEGFVYWGQGTLVTVSS VL: DIQLTQSPSFLSASVGDRVTITCKASQNVGTAVAWYQQKPGKAPKLLIYSASNRYTGVPSRFSGSGSGTEFTLTISSLQPEDFATYYCQQYSSYPLTFGGGTKVEIK 8.81
